Data provenance is paper PMC7156458.

Test: cytotoxicity in Drosophila l(2)mbn cells
Assay type: cell-based
Conditions: Drosophila, l(2)mbn cells (larval blood cell-derived), 1 µM, replicate 1, relative to DMSO 1%, read-out: % viability, viability 1
Observed Property: viability at 1 µM

C=C1CC[C@H]2[C@]3(C)C[C@H](C=C(C)C)O[C@H]3CC[C@]2(C)[C@@H]1Cc1c(OC)oc(CO)c(C)c1=O [Compound 18] :: 108%
C=C1CC[C@H]2[C@]3(C)C[C@@H](C=C(C)C)O[C@H]3CC[C@]2(C)[C@@H]1Cc1c(OC)oc(CO)c(C)c1=O [Compound 17] :: 76.8%
C=C1CC[C@@H]2[C@](C)(CC[C@H]3O[C@H](C=C(C)C)C[C@@]23C)[C@@H]1Cc1c(O)c(C)c(C)oc1=O [Compound 10, higginsianin A] :: 20.3%

Note to self: viability at 1 µM recorded for C=C1CCC2C(C)(CC(=O)C=C(C)C)C(O)CCC2(C)C1Cc1c(OC)oc(CO)c(C)c1=O (stereo not shown) [Compound 19] was 128%

Note to self: viability at 1 µM recorded for C=C1CCC2C(C)(CCC=C(C)C)C(O)CCC2(C)C1Cc1c(O)c(C)c(C)oc1=O (stereo not shown) [Compound 9, higginsianin B] was 85%

Note to self: viability at 1 µM recorded for C=C1CCC2C(C)(CCC=C(C)C)C(O)CCC2(C)C1Cc1c(OC)oc(CO)c(C(=O)OC)c1=O (stereo not shown) [Compound 13] was 157%

Note to self: viability at 1 µM recorded for C=C1CCC2C(C)(CCC=C(C)C)C(O)CCC2(C)C1Cc1c(OC)oc(CO)c(C)c1=O (stereo not shown) [Compound 12] was 112%

Note to self: viability at 1 µM recorded for C=C1CC[C@@H]2[C@](C)(CC[C@H]3O[C@H](C=C(C)C)C[C@@]23C)[C@@H]1Cc1c(OC)oc(CO)c(C)c1=O [Compound 20] was 71.1%

Note to self: viability at 1 µM recorded for C=C1CC[C@H]2[C@]3(C)C[C@H](C=C(C)C)O[C@H]3CC[C@]2(C)[C@@H]1Cc1c(OC)oc(C)c(C)c1=O [Compound 24] was 130%

Note to self: viability at 1 µM recorded for C=C1CCC2C(C)(CCC=C(C)C)C(O)CCC2(C)C1Cc1c(OC)oc(C)c(C(=O)OC)c1=O (stereo not shown) [Compound 14] was 131%

Note to self: viability at 1 µM recorded for C=C1CC[C@H]2[C@]3(C)C[C@H](C=C(C)C)O[C@H]3CC[C@]2(C)[C@@H]1Cc1c(O)c(C)c(C)oc1=O [Compound 6, subglutinol B] was 16.5%

Note to self: viability at 1 µM recorded for C=C1CCC2C3(C)CC(C=C(C)C)OC3CCC2(C)C1Cc1c(OC)oc(C)c(C)c1=O (stereo not shown) [Compound 23] was 44.7%

Note to self: viability at 1 µM recorded for C=C1CC[C@H]2[C@]3(C)C[C@@H](C=C(C)C)O[C@H]3CC[C@]2(C)[C@@H]1Cc1c(O)c(C)c(C)oc1=O [Compound 5, subglutinol A] was 8.99%

Note to self: viability at 1 µM recorded for C=C1CCC2C(C)(CCC=C(C)C)C(=O)CCC2(C)C1Cc1c(O)c(C)c(C)oc1=O (stereo not shown) [Compound 8] was 86.7%

Note to self: viability at 1 µM recorded for C=C1CCC2C(C)(CC(=O)C=C(C)C)C(O)CCC2(C)C1Cc1c(OC)oc(C)c(C)c1=O (stereo not shown) [Compound 25] was 121%

Note to self: viability at 1 µM recorded for C=C1CCC2C(C)(CC(=O)C=C(C)C)C(O)CCC2(C)C1Cc1c(O)c(C)c(C)oc1=O (stereo not shown) [Compound 7] was 139%
